Data origin, for the record: ChEMBL document CHEMBL6134816

test: Half-life in male ICR mouse at 1 mg/kg, iv measured after 24 hrs by LC-MS/MS analysis; format: ADME, organism-based; details: in vivo
PROPERTY: half-life (min)
# number only, unit min dropped from output

Input: For the compound shown here, CC(C)NCC(C(=O)N1CCN(c2ncnc3[nH]nc(Br)c23)CC1)c1ccc(Br)cc1 (stereo unspecified) , give the reported half-life.
Output: 111

###

assay: MRT (0 to infinity) in male ICR mouse at 10 mg/kg, po measured after 24 hrs by LC-MS/MS analysis; assay type: ADME, organism-based; settings: in vivo
PROPERTY: MRT inf
# output: number + unit

Input: For the molecule shown here, CC(C)NCC(C(=O)N1CCN(c2ncnc3[nH]nc(Br)c23)CC1)c1ccc(Br)cc1 (stereo unspecified) , give the reported MRT inf.
Output: 2.43 h
